Origin of measurements: ChEMBL document CHEMBL5131509

- Tested on: SARS-CoV-2
- test method notes: Antiviral activity against SARS-CoV-2 infected in African Green monkey Vero cells assessed as inhibition of viral cytopathic effect measured after 72 hrs by inverted microscopic method
- Assay type: functional, organism-based, Vero E6
- recorded conditions: Severe acute respiratory syndrome coronavirus 2, Vero C1008, 72 h
Field: label. Allowed values: class 1 (IC50 < 2000 nM) or class 0 (IC50 >= 2000 nM).

Example entries and their recorded answers appear below.
> print(dat)
                                   compound  answer.label
1     CC(C)(C)c1cccc(NC(=O)c2cc(Cl)ccc2O)c1       class 1
2               O=C(Nc1ccccc1)c1cc(Cl)ccc1O       class 0
3           O=C(Nc1cccc(Cl)c1)c1cc(Cl)ccc1O       class 1
4  O=C(Nc1ccc([N+](=O)[O-])cc1)c1cc(Cl)ccc1O       class 1
5     O=C(Nc1ccc(C(F)(F)F)cc1)c1cc(Cl)ccc1O       class 1
6  O=C(Nc1ccc([N+](=O)[O-])cc1Cl)c1cc(Cl)ccc1O [NICLOSAMIDE]       class 1

Attention now turns to another entry.
Regarding COc1ccc2cc1Oc1ccc(cc1)C[C@H]1c3c(cc4c(c3Oc3cc5c(cc3OC)CCN(C)[C@@H]5C2)OCO4)CCN1C [CEPHARANTHINE] , kindly confirm whether its IC50 is beneath 2000 nM.
class 0
